tested on: Ba/F3 cells expressing L858R/T790M/C797S (EGFR-LTC); test: Growth inhibition (GI50) of Ba/F3 cells expressing L858R/T790M/C797S (EGFR-LTC), Celltiter glo; type: cell-based; conditions: Mus musculus, BaF3, 72 h
observable: GI50

{"columns": ["compound", "observable", "recorded.value"],
 "data": [
  ["COc1cc(N2CCC(N3CCN(C)CC3)CC2)c(Cl)cc1Nc1ncc(Cl)c(N(c2ccc3scnc3c2NS(C)(=O)=O)S(C)(=O)=O)n1 [Example 114]", "GI50", "100 to 500 nM"],
  ["COc1cc(N2CCC(N3CCN(C)CC3)CC2)c(Cl)cc1Nc1ncc(Cl)c(Nc2cc(C(F)(F)F)ccc2NS(C)(=O)=O)n1 [Example 137]", "GI50", "100 to 500 nM"],
  ["Cc1cc(Nc2ncc(Cl)c(Nc3cc(Cl)ccc3N(C)S(C)(=O)=O)n2)c(Cl)cc1N1CCC(N2CCC(N(C)C)C2)CC1 (centres unmarked) [Example 179]", "GI50", "25 to 100 nM"],
  ["CCc1cc(Nc2ncc(Br)c(Nc3cc(Cl)ccc3NS(C)(=O)=O)n2)c(OC)cc1N1CCC(N2CCN(C)CC2)CC1 [Example 191]", "GI50", "1 to 25 nM"],
  ["COc1cc(N2CCC(N3CCN(C)CC3)CC2)c(Cl)cc1Nc1ncc(Br)c(Nc2cc(C)ccc2NS(C)(=O)=O)n1 [Example 107]", "GI50", "100 to 500 nM"],
  ["COc1cc(N2CCC(N3CCN(C)CC3)CC2)c(C)cc1Nc1ncc(Cl)c(Nc2cc(Cl)ccc2NC(C)=O)n1 [Example 65]", "GI50", "100 to 500 nM"],
  ["CN1CCN(C2CCN(c3ccc4cc(Nc5ncc(Br)c(Nc6cc7c(cc6NS(C)(=O)=O)CCO7)n5)ccc4n3)CC2)CC1 [Example 247]", "GI50", "100 to 500 nM"],
  ["COc1cc(N2CCC(N3CCN(C)CC3)CC2)c(Cl)cc1Nc1ncc(Br)c(Nc2cc(Cl)ccc2-c2cnn[nH]2)n1 [Example 195]", "GI50", "25 to 100 nM"],
  ["COc1cc(N2CCC(N3CCN(C)CC3)CC2)c(Br)cc1Nc1ncc(Br)c(Nc2cc3c(cc2NS(C)(=O)=O)CCO3)n1 [Example 271]", "GI50", "1 to 25 nM"],
  ["COc1nc(N2CCC(N(C)C)C2)ccc1Nc1ncc(Cl)c(Nc2ccc3nccnc3c2P(C)(C)=O)n1 (centres unmarked) [Example 127]", "GI50", "2000 to 10000 nM"],
  ["CCc1cc(Nc2ncc(Cl)c(Nc3cc4c(cc3NS(C)(=O)=O)CCO4)n2)c(OC)cc1N1CCC(N2CCN(C)CC2)CC1 [Example 206]", "GI50", "25 to 100 nM"],
  ["COc1cc(N2CCC(N3CCN(C)CC3)CC2)c(C)cc1Nc1ncc(Cl)c(N(C)c2ccccc2NS(C)(=O)=O)n1 [Example 120]", "GI50", "2000 to 10000 nM"],
  ["COc1ccc(NS(C)(=O)=O)c(Nc2nc(Nc3cc(C)c(N4CCC(N5CCCN(C)CC5)CC4)cc3OC)ncc2Cl)c1 [Example 204]", "GI50", "25 to 100 nM"],
  ["COc1cc(N2CCC(N3CCN(C)CC3)CC2)c(C)cc1Nc1ncc(Cl)c(Nc2cc(Cl)c(Cl)cc2NS(C)(=O)=O)n1 [Example 99]", "GI50", "25 to 100 nM"]
]}

meta.source: patent US20240228458A1
